# key: entry, value: EC50
Molecular target: RNA-binding protein pos-1 (Caenorhabditis elegans)
Sequence (G5EF15 whole entry): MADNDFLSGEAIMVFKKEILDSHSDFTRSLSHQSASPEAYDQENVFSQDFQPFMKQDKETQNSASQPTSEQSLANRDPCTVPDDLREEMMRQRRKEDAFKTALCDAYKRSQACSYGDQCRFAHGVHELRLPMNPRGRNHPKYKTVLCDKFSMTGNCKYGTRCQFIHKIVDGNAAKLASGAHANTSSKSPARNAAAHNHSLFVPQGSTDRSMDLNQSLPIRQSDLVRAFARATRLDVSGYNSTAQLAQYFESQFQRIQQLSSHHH
Experiment: disruptors of C. elegans POS-1 RNA interaction – biochemical, fluorescence polarization, dose response (AID 1964);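 note: purified POS-1 fused to maltose binding protein made in E. coli; potency of compounds blocking POS-1 binding to fluorescent RNA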
Active and inactive are the calls of the source.

Give the measured EC50 for COC(=O)c1ccc(-n2c(C)cc(C(=O)COC(=O)CC3Sc4ccccc4NC3=O)c2C)cc1 (stereo not given)
> 300 µM (not active)

Please report the measured EC50 for CCN1CCN(Cc2c(O)ccc3c2O/C(=C\c2ccccc2)C3=O)CC1
30.3 µM (active)

---

Target protein (sequence): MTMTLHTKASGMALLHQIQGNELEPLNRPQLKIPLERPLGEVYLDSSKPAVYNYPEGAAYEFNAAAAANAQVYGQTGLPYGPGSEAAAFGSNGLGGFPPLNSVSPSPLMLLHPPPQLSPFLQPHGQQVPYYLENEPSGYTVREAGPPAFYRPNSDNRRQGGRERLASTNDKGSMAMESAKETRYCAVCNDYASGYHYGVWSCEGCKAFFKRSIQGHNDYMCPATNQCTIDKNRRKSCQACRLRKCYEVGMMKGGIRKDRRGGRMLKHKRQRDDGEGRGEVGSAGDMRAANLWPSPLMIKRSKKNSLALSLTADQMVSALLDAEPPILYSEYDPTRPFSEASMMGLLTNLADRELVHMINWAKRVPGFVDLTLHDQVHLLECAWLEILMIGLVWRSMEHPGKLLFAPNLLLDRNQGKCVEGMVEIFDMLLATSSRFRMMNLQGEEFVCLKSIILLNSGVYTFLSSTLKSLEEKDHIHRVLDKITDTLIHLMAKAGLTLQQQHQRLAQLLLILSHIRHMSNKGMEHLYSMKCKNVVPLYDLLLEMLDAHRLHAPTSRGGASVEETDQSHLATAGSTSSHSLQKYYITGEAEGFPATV
Active and inactive are the calls of the source.
Attribute measured: IC50

Worked set:
Molecule | IC50
CN(C)c1nc(N/N=C\c2ccc(Cl)c([N+](=O)[O-])c2)nc(Nc2ccc(F)cc2)n1 | > 50 µM (not active)
CCC1(CC)NC(=O)N(CC(=O)Nc2sc3c(c2C(N)=O)CCC3)C1=O | < 1.56 µM (active)

Report IC50 for COc1ccc(NC(=O)c2ccco2)cc1N
36.1 µM (not active)

Indicate the recorded IC50 value for this molecule: O=C(CCC(=O)Nc1nnc(C2CCCCC2)s1)NCC1CCCO1 (centres undefined)
> 50 µM (not active)

---

// AC50 lookup, one value per entry
Biological target: Cytochrome P450 1A2 (Homo sapiens, UniProt P05177);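 note: PubChem cytochrome P450 panel assay, CYP1A2 panel member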
Sequence (P05177 whole entry): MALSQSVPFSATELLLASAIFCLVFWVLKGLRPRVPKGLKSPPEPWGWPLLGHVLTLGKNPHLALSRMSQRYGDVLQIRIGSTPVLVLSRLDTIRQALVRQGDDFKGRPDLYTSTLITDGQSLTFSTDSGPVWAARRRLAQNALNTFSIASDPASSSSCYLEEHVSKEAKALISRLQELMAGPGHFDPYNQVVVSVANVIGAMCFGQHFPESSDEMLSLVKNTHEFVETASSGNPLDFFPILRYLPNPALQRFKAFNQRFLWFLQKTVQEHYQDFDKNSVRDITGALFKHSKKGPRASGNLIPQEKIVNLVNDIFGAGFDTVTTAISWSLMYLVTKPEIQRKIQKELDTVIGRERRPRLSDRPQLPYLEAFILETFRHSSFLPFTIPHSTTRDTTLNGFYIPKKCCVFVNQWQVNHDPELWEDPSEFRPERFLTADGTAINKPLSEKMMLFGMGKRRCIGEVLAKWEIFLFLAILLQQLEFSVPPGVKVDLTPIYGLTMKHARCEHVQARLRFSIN

Solved cases (5 shown):
Compound | AC50
CN1CCC2(CC1)C1CN(C)CC=C1C(C#N)=C(N)C2(C#N)C#N (stereo not drawn) | 20 µM (inconclusive)
COc1ccccc1CN1CC[C@@]2(CCCN(C(=O)c3ccco3)C2)C1 | 39.8 µM (inconclusive)
Cc1ccccc1-c1nc(NC2CCNCC2)c2ccccc2n1 | 20 µM (inconclusive)
O=c1c(-c2ccccc2)nc2cnc(Oc3ccccc3)nc2n1Cc1cccs1 | 2.51 µM (inconclusive)
O=C(Nc1cccnc1Cl)C1c2ccccc2Oc2ccccc21 | 3.16 µM (inconclusive)

Give reported AC50 value for COc1cc(/C=C2\SC(=S)N(Nc3ccccc3)C2=O)cc(OC)c1OC
7.08 µM (inconclusive)

Provide only the value of recorded AC50 for Cc1cnc(CNc2ncncc2-c2cccc(NS(C)(=O)=O)c2)cn1
31.6 µM (inconclusive)

Read off the recorded AC50 for Cn1ncc(C#N)c1NC(=O)C1CC(c2ccc(Cl)cc2)=NO1 (stereo not drawn)
31.6 µM (inconclusive)

State its AC50 for this compound: COc1ccccc1N1CCN(C[C@@H]2CN3C(=O)N(C)c4ccccc4C3=N2)CC1
31.6 µM (inconclusive)

Read the entry Cc1noc(C)c1C(=O)N1CCC[C@@]2(CCN(c3ccccc3)C2)C1 and write its reported AC50.
25.1 µM (inconclusive)

Given CCN1CCc2c(sc(NC(=S)NC(=O)c3ccccc3)c2C#N)C1 , respond with its AC50.
14.1 µM (inconclusive)

# return recorded AC50 for input N[C@H](Cc1ccc(N(CCCl)CCCl)cc1)C(=O)O
15.8 µM (inconclusive)

---

Target: 5-hydroxytryptamine receptor 2A (Mus musculus, UniProt P35363);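 note: CHO-K1 cells with tagged receptor and beta-arrestin; agonist potency measured as compound-induced activation of the receptor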
Sequence (P35363 whole entry): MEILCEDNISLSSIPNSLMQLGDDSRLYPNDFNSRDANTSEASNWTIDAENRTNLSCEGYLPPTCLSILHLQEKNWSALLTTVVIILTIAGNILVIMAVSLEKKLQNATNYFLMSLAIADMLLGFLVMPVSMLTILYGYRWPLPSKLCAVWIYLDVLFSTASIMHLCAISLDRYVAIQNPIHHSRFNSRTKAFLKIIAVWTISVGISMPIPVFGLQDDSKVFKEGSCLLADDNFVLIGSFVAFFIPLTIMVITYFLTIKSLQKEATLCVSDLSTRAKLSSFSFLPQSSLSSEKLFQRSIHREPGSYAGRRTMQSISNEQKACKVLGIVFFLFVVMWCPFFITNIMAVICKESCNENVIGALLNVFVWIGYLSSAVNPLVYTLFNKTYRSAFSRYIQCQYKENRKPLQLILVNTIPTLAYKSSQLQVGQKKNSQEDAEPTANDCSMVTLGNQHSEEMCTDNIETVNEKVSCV
Assay type: functional, cell-based
Active and inactive are the calls of the source.
Attribute measured: EC50

Check out these entries, answers already filled in.
Molecule | EC50
CC(C)N1CCOC(c2ccc(O)c(O)c2)C1 (centres undefined) | 1680 nM (active)
Cc1cc(C)c(O)c(-c2[nH]nc3c2C(c2cccc(O)c2)N(Cc2ccco2)C3=O)c1 (centres undefined) | 8010 nM (active)
CC(=O)N1CCc2cc(C(=O)CN3CCN(c4ccccn4)CC3)ccc21 | 257 nM (active)

Tell me EC50 reported for CCC(c1nnnn1-c1c(C)cccc1C)N1CCN(C/C=C/c2ccccc2)CC1 (centres undefined)
362 nM (active)

---

Target: Phospholipase A2 (Homo sapiens, UniProt P04054);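 note: confirmatory dose-response counterscreen on phospholipase A2, testing hits that came from an ultra-high-throughput screen for ATG4B inhibitors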
Sequence (P04054 whole entry): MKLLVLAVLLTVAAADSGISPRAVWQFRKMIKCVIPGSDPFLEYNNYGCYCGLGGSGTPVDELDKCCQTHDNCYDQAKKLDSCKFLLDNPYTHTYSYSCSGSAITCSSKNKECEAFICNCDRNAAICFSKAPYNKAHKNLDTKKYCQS
Format: functional
Activity calls are given as the source filed them.
Your reply should match one of these outcome classes. 1 (yes) for active, 0 (no) for inactive

Smi | Assigned category
Nc1nn(-c2ccccc2)c(N)c1N=Nc1ccccc1 | 1 (yes)
O=C(N/N=C/c1ccc(-c2ccc(S(=O)(=O)Nc3ncccn3)cc2)o1)c1cc2ccccc2cc1O | 0 (no)
CCCCCCCCCCCCCCCC[n+]1ccccc1 | 1 (yes)

Continue with the compound presented below.
What call does the record list for CC(C)(C)c1ccccc1/N=C/c1ccc2ccccc2n1 ?
1 (yes)

---

Target: DNA dC->dU-editing enzyme APOBEC-3A (Homo sapiens, UniProt P31941)
Sequence (P31941 whole entry): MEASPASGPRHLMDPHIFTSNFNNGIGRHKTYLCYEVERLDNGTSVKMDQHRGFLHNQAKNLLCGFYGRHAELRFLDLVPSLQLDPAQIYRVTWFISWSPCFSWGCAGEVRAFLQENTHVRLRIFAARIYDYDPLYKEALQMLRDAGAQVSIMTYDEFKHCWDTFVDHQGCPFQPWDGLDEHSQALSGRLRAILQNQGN
Experiment: Dose Response confirmation of small molecule APOBEC3A DNA Deaminase Inhibitors via a fluorescence-based single-stranded DNA deaminase assay. [Related pubchem assays (depositor defined):AID493011, AID493024]
Assay type: functional
Active and inactive are the calls of the source.
Attribute measured: IC50

Smi | IC50
CC1(C)CC(N2CCCCC2)=CC(=[N+]2CCCCC2)C1 | 2.2 µM (active)

Supply measured IC50 of CN1CCN(S(=O)(=O)c2cccc(C(=O)N3CCN(c4ccccc4F)CC3)c2)CC1 in your reply.
10.1 µM (active)

Specify reported IC50 for the compound shown: CCn1nc(NC(=O)COC)c2cc3cc(C)ccc3nc21
5.02 µM (active)

Supply measured IC50 of CCc1ccc(/C=C/c2c[nH]c3ccccc23)[n+](CC)c1 in your reply.
2.33 µM (active)

Give IC50 for CC1=CC(C)(C)[N+](C)(C)c2ccccc21
2.6 µM (active)

---

This listing pairs compounds with measured AC50.
Biological target: Paired box protein Pax-8 (Homo sapiens)
Sequence (Q06710 whole entry): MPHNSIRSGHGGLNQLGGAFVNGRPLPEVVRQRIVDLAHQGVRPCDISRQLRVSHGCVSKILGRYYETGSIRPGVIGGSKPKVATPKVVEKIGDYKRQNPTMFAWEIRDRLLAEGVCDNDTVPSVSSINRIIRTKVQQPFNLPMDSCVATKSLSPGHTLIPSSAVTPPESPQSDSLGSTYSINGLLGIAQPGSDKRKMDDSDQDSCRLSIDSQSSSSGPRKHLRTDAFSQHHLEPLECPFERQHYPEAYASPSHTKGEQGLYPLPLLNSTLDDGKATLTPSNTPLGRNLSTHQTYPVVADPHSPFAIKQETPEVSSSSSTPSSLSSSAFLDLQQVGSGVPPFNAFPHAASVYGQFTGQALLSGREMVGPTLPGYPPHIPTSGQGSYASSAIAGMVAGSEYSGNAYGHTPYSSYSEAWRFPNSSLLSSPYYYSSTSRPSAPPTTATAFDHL
Test: PAX8 transcriptional activity inhibition in RMG-I – RMG-I cells, luciferase, cherry-pick, dose response (AID 687027);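 note: luciferase reporter driven by Pax8 target thyroperoxidase promoter measured by SteadyGlo luminescence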
Format: functional, cell-based
Calls of active or inactive are those of the source.

# count of solved cases: 4
Smi | AC50
O=C(C[C@H]1CC[C@@H]2[C@H](COC[C@H](O)CN2S(=O)(=O)c2cccc(F)c2)O1)Nc1ccc(-c2ccccc2)cc1 | 17.2 µM (active)
Cc1ccc(S(=O)(=O)Nc2ccc3c(c2)C(=O)N([C@@H](C)CO)C[C@@H](C)[C@H](CN(C)Cc2ccc(Cl)c(Cl)c2)OCCCC[C@@H](C)O3)cc1 | 7.92 µM (active)
CC(=O)O[C@H]1C[C@H](O[C@H]2[C@@H](O)C[C@H](O[C@H]3[C@@H](O)C[C@H](O[C@H]4CC[C@@]5(C)[C@H](CC[C@@H]6[C@@H]5CC[C@]5(O)[C@@H](C7=CC(=O)OC7)CC[C@]65O)C4)O[C@@H]3C)O[C@@H]2C)O[C@H](C)[C@H]1O[C@@H]1O[C@H](CO)[C@@H](O)[C@H](O)[C@H]1O | 1.98 µM (active)
C[C@H](CO)N1C[C@H](C)[C@@H](CN(C)Cc2ccc(Oc3ccccc3)cc2)Oc2ccc(NS(=O)(=O)c3ccc(Cl)cc3)cc2CC1=O | 7.43 µM (active)

Read the entry O=C1/C(=C/c2cccc(Br)c2)SC(=S)N1CCC(=O)N(CCO)c1ccccc1 and write its reported AC50.
8.17 µM (active)

---

Biological target: Short transient receptor potential channel 4 (Mus musculus, UniProt Q9QUQ5)
Sequence (Q9QUQ5 whole entry): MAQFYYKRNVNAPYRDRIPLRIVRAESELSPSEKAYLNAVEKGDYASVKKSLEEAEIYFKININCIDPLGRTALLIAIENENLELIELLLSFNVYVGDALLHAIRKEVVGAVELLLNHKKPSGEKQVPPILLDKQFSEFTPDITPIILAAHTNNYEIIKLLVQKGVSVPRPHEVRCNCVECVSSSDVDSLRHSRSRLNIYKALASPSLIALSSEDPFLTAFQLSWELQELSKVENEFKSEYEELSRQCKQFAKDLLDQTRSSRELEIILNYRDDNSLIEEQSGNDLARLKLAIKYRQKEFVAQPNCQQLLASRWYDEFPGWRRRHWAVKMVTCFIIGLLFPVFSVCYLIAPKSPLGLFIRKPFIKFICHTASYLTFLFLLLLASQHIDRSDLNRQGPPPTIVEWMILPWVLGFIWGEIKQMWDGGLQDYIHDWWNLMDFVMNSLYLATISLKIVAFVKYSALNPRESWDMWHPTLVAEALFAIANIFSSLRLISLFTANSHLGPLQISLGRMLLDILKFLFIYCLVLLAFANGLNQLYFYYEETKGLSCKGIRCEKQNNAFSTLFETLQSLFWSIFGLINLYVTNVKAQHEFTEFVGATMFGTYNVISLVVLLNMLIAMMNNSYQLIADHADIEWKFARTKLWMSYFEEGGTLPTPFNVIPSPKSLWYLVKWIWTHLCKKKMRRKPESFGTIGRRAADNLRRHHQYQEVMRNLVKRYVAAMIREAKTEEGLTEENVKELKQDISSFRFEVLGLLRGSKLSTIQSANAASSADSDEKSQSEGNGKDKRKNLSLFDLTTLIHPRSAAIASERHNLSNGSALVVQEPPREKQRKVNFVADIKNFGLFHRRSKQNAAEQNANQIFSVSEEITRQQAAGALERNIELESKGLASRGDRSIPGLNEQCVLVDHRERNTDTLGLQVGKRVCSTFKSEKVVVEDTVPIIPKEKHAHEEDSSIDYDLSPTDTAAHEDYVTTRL
Test: block of DAMGO-driven TRPC4 calcium entry – cell-based, HEK293 TRPC4/mu-opioid, Fluo-4 calcium, dose response (AID 434942);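 note: potency of inhibitors blocking the TRPC4 calcium response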
Type: functional
Activity calls are given as the source filed them.
Attribute measured: EC50

Compound | EC50
Cc1cc(Nc2ccc(C)c(C)c2)c2ccccc2n1 | 2110 nM (active)
N=c1n(CCO)c2ccccc2n1Cc1ccc(Cl)cc1 | 3350 nM (active)
CCCCCCCCCCCCOC(=O)C[N+](C)(C)C | 2990 nM (active)
Cc1[nH]c2ccc(C(=O)OC(C)C(=O)N(C)c3ccccc3)cc2c1C (stereo unspecified) | 749 nM (active)
COc1cc(C(=O)N(CCc2ccccc2)C2=CC3CCC(C2)N3C)cc(OC)c1OC (stereo unspecified) | 335 nM (active)

Let us examine a further case.
Please give the documented EC50 of CCCCC(c1nnnn1CC1CCCO1)N1CCN(Cc2ccccc2)CC1 (stereo unspecified)
2370 nM (active)

The origin of these recorded values is ChEMBL document CHEMBL1201862.
